Sourced from ChEMBL document CHEMBL5113533

system: THP-1; test: Antiinflammatory activity against LPS-stimulated human THP-1 cells assessed as TNF-alpha secretion pretreated for 1 hr followed by LPS stimulation and measured upto 24 hrs by ELISA analysis; type: functional, cell-based
Observation Type: IC50
The number alone won't do; follow it with the unit.

Query: Can you share its IC50? I mean this compound: Cc1cn(-c2cc(NC(=O)c3ccc(C)c(Nc4nccc(-c5cccnc5)n4)c3)cc(C(F)(F)F)c2)cn1
Result: 400 nM
